# targetDesc: OX2R (Homo sapiens, UniProt O43614)
# Sequence (O43614 whole entry): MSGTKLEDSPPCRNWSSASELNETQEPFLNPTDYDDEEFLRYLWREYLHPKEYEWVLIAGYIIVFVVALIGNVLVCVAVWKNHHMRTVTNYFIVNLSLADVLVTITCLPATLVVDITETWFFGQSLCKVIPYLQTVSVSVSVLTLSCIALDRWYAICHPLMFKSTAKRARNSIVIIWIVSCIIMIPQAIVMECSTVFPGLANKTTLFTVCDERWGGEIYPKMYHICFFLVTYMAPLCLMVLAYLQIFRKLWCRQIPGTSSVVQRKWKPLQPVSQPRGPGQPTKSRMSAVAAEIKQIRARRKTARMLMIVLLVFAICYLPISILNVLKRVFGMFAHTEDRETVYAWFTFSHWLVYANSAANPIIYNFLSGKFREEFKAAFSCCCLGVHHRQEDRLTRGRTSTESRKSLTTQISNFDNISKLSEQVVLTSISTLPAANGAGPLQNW
# experimentSummary: Inhibition of orexin-peptide-A-induced calcium mobilization in CHO cells, human OX2R
# Type: cell-based
# Design: expressed in transfected cells; host or cells: CHO-K1
readoutType: Kb
Write the numeric value and follow it with the unit.

COc1ccc(CNC(=O)c2cc(-c3cncc(Cl)c3)cnc2-c2ccccn2)nc1OC : 9 nM
COc1ccc(CNC(=O)c2cc(-c3cncc(C)c3)ncc2-c2nccs2)nc1OC : 14 nM
COc1ccc(CNC(=O)c2cc(-c3cncc(C)c3)ncc2-c2ccccc2)nc1OC : 12 nM
COc1ccc(CNC(=O)c2cc(-c3cc(Cl)cc(Cl)c3)cnc2-c2cccnc2)cc1OC : 18 nM

Then this compound:
What value of Kb has been recorded for this entry: `Cc1ccc(-c2ncccn2)c(C(=O)N2C[C@H](COc3ccc(F)cn3)CC[C@H]2C)c1` 11 nM
